Tested on: MDA-MB-231 breast
Test: NCI-60 one-dose screen, 48 h (100 = growth as untreated, 0 = no growth, -100 = all killed)
Conditions: 10 µM
This is part of a sample that, as a whole, favours compounds with a hit. Of some 83,000 tested, about 20% had one in any assay.
ATTRIBUTE_MEASURED: growth (%)

1) COc1ccc(-c2cc(-c3ccc(Cl)cc3)nc(SCCCC(=O)NO)n2)cc1 = 1.61
2) N#Cc1c(N)nc(-c2cc(F)cc(C(F)(F)F)c2)nc1-c1ccccc1F = 21.3
3) O=C(/C=C/c1cccc(B(O)O)c1)c1cccc(B(O)O)c1 = -9.31
4) O=C(Nc1ccc(OS(=O)(=O)c2ccccc2)cc1)C1CCCCC1 = 73.1
5) O=c1c(Br)ccc(Br)cc1Br = -3.63
6) N#CCc1csc(Cc2ccccc2)n1 = 114
7) O=C(Nc1cc([N+](=O)[O-])c2[nH]c(=O)c3ccccc3c2c1)C(F)(F)F = 88.6
8) COc1cc(-c2csc(NC(=O)Nc3ccc(Cl)c(C(F)(F)F)c3)n2)cc(OC)c1OC = -32.2
9) CC(C)(C)c1ccc(S(=O)(=O)N[C@H]2CC[C@H]3[C@@H]4CCc5cc(OS(=O)(=O)O)ccc5[C@H]4CC[C@]23C)cc1 = 26.4
10) Clc1nc2ccccc2cc1Cn1nnc(Cc2ccccc2)n1 = 53.1
11) CCC(=O)OC1CCC2C3CCC(=O)OC3C(C)(CCC(=O)O)CC12C (configuration not stated) = 19.6
12) CC(=O)[C@@]12O[C@](C)(c3ccccc3)O[C@@H]1CC1C3CCC4=CC(=O)CC[C@]4(C)C3CC[C@@]12C (some centres not stated) = 94.4
13) CC(=O)N[C@H](C(=O)N[C@@H](CCCNC(=N)N)C(=O)N[C@@H](CCCCN)C(=O)N[C@@H](CCCNC(=N)N)C(=O)N[C@]1(C)CCCCCC/C=C\CCC[C@@](C)(C(=O)N[C@@H](CCCNC(=N)N)C(=O)N[C@@H](CCC(=O)O)C(=O)N[C@@H](CC(C)C)C(=O)N[C@H](C(=O)N[C@@H](CCC(=O)O)C(N)=O)C(C)C)NC(=O)[C@H](CCC(N)=O)NC(=O)[C@H](CC(C)C)NC(=O)[C@H](CC(C)C)NC(=O)[C@H](CCCNC(=N)N)NC(=O)[C@H](CCCNC(=N)N)NC(=O)[C@H](CC(C)C)NC1=O)C(C)C = -39.5
14) Cc1c2c[n+](C(C)C)ccc2c(C)c2c1[nH]c1ccccc12 = 35.3
15) N#CC1=CC2CN(Cc3ccccc3)C1C1C(=O)N(c3ccccc3)C(=O)C21 (configuration not stated) = 106
16) O=C(Cn1cc(CO)nn1)Nc1nc2ccccc2s1 = 100
17) CCOC(=O)C1=CSC2=NC3=C(CCC/C3=C\c3cc(OC)c(OC)c(OC)c3)C(c3cc(OC)c(OC)c(OC)c3)N12 (configuration not stated) = 74.2
